Data provenance is patent US20110065632A1.

Recorded measurements of Ki, one per entry
Target: hsst1 (Homo sapiens)
Construct: expressed in transfected cells
Sequence (P30872 whole entry): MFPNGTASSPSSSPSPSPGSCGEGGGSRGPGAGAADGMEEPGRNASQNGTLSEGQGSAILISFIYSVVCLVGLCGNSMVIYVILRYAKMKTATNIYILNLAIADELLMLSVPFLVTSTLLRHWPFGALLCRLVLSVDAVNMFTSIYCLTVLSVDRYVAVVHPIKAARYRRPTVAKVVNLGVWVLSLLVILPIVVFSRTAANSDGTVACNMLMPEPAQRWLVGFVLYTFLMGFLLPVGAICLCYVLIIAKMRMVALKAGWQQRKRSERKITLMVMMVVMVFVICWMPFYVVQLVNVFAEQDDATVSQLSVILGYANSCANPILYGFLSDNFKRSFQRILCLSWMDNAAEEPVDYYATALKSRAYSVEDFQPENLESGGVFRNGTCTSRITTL
Assay: Somatostatin receptor radioligand binding assay, hsst1
Conditions: CHO-K1 membranes, [125I-Tyr11]SS-14; read-out: hsst1 Ki
Enter your answer as a number in nM; do not include the unit.

- CCCN1C[C@H](CSCC(=O)NCCCC[C@@H](NC(C)=O)C(=O)N[C@H](Cc2ccccc2)C(=O)N[C@H]2CSSC[C@@H](C(=O)N[C@H](C(N)=O)[C@@H](C)O)NC(=O)[C@H]([C@@H](C)O)NC(=O)[C@H](CCCCN)NC(=O)[C@@H](Cc3c[nH]c4ccccc34)NC(=O)[C@H](Cc3ccc(O)c(I)c3)NC2=O)C[C@@H]2c3cccc4[nH]cc(c34)C[C@H]21: 1340

Continue with the next molecule.
Qu. Fill blank: measured Ki of the molecule `CCCN1C[C@H](CSCC(=O)N[C@H](Cc2ccccc2)C(=O)N[C@H]2CSSC[C@@H](C(=O)N[C@H](C(N)=O)[C@@H](C)O)NC(=O)[C@H](CC)NC(=O)[C@H](CCCCN)NC(=O)[C@@H](Cc3c[nH]c4ccccc34)NC(=O)[C@H](Cc3ccc(O)cc3)NC2=O)C[C@@H]2c3cccc4[nH]cc(c34)C[C@H]21` is ____.
Ans. 691
